# Species: Homo sapiens
# Procedure Text: Selectivity index, ratio of Ki for Bcl-2 (unknown origin) to Ki for Bcl-XL (unknown origin)

Smiles	Ratio Ki
COc1ccc(/C=C/C(=O)Nc2ccc(C(=O)NS(=O)(=O)c3ccc(NCCSc4ccccc4)c([N+](=O)[O-])c3)cc2)cc1	19
O=C(/C=C/c1cccc(C(F)(F)F)c1)Nc1ccc(C(=O)NS(=O)(=O)c2ccc(NCCSc3ccccc3)c([N+](=O)[O-])c2)cc1	9
Cc1cccc(/C=C/C(=O)Nc2ccc(C(=O)NS(=O)(=O)c3ccc(NCCSc4ccccc4)c([N+](=O)[O-])c3)cc2)c1	11
Cc1ccccc1/C=C/C(=O)Nc1ccc(C(=O)NS(=O)(=O)c2ccc(NCCSc3ccccc3)c([N+](=O)[O-])c2)cc1	8
O=C(/C=C/c1ccccc1C(F)(F)F)Nc1ccc(C(=O)NS(=O)(=O)c2ccc(NCCSc3ccccc3)c([N+](=O)[O-])c2)cc1	10
